From: patent US8927559B2

biological target: CRTH2 receptor (hCRTH2) (Homo sapiens, UniProt Q9Y5Y4); construct: expressed in transfected cells; host or cells: HEK cells (HEK-hCRTH2 cell line), membranes; test: Radioligand binding assay ([3H]PGD2 competition, membranes of HEK-hCRTH2 cell line); conditions: 3.0 nM [3H]PGD2, HEK-hCRTH2 membranes, 60 min, room temperature; read-out: Ki
Sequence (Q9Y5Y4 whole entry): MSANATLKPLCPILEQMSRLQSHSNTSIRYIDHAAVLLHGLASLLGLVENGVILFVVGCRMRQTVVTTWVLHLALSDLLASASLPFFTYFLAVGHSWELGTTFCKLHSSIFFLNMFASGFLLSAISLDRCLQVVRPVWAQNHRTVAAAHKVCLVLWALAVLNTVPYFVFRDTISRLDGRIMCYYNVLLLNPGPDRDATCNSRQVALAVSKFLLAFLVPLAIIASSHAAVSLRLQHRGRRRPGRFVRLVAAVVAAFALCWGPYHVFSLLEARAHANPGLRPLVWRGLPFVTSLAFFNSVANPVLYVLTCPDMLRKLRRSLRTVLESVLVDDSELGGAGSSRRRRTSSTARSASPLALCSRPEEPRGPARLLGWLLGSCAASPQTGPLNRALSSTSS
Recorded Ki, one value per entry.

Cc1cc(-c2ccc3c(=O)n(-c4ccc(F)cc4)c(CCCCC(=O)O)nc3c2)no1 | 10 to 50 nM
O=C(O)CCCCc1nc2cc(-c3cc(C[S+]([O-])c4nc5ccccc5[nH]4)on3)ccc2c(=O)n1-c1ccc(F)cc1 (centres unmarked) | 10 to 50 nM
C[C@]1(c2cc3ccccn3n2)CC(c2ccc3c(=O)n(-c4ccc(F)cc4)c(CCCCC(=O)O)nc3c2)=NO1 | 10 to 50 nM
C[C@]1(c2nc3ccc(F)cc3o2)CC(c2ccc3c(=O)n(-c4ccc(F)cc4)c(CCCCC(=O)O)nc3c2)=NO1 | 10 to 50 nM

[ask] Please provide the recorded Ki for O=C(O)CCCCc1nc2cc(-c3cc(-c4ccc5ccccc5n4)on3)ccc2c(=O)n1-c1ccc(F)cc1 , tested on CRTH2 receptor (hCRTH2) (Homo sapiens, UniProt Q9Y5Y4).
[reply] ≤ 10 nM
